assay: Human HepG2 cell viability assay in 384 well format; type: toxicity, cell-based; set-up: dose 125 nL, time 70.5 hour; concentration not given beside the values; conditions: HepG2 cells, read-out: Inhibition
Recorded cytotoxicity at 70.5 h for the following molecules
Outcome Measure: cytotoxicity at 70.5 h (%)

INSERT INTO results (molecule, readout_unit, number) VALUES
  ('CNC(=O)c1n[nH]c2c1C(c1cccc3c1OC(C)(C)C3)CC(=O)N2 (stereo not given)', '%', -1.8),
  ('Cc1noc(C)c1NS(=O)(=O)c1cc(Cl)c(Cl)c(C(=O)O)c1', '%', -9.2),
  ('COCc1cc(N2C[C@@H](C)[C@](O)(C3CC3)C2)ncn1', '%', 0.518),
  ('O=C1COC2(CCN(Cc3cccnc3)CC2)CN1', '%', 12.3),
  ('COc1ccc(OC)c(C2CCN(CC(C)(C)N3CCOCC3)C2)c1 (stereo not given)', '%', -4.45),
  ('Cc1nc2ccccn2c1CC(=O)N[C@@H]1CCC[C@@H](N2CCCC2)[C@@H]1O', '%', -1.64),
  ('CCS(=O)(=O)N1CC[C@@H]2[C@H](COCC3CC3)CN(C)C(=O)[C@@H]2CC1', '%', -5.95),
  ('Cc1n[nH]c(C)c1CCc1ccc(S(C)(=O)=O)cc1', '%', -13.7),
  ('Cc1nn(CC(C)C)c(C)c1CC(=O)N1CCCC(CNS(C)(=O)=O)C1 (stereo not given)', '%', -13.2),
  ('CNC(=O)NC(=O)CN(C)C(c1cccnc1)c1ccc(F)cc1F (stereo not given)', '%', -1.87),
  ('Cc1csc(C(C)(C)NCC(=O)N2CCCC(C(F)(F)F)C2)n1 (stereo not given)', '%', 8.68),
  ('CC(Cc1ccco1)NC(=O)Nc1ccc(N2CCCC2)nc1 (stereo not given)', '%', -7.87),
  ('CC(C)[C@H]1COC(=O)N1CC(=O)N1CCCN(C(=O)c2ccoc2)CC1', '%', -8.34),
  ('COc1ccc2c(c1)OCC(Cc1cc(C(=O)N3CCCC3)ccn1)C2 (stereo not given)', '%', -32.3),
  ('c1cncc(CN2CCn3cc(Cn4cccn4)nc3C2)c1', '%', -7.42),
  ('Cc1ccc(CC(=O)N2CCn3cc(Cn4cncn4)nc3C2)cc1', '%', -7.66),
  ('CCOCC(=O)N1CCCC2(CCN(c3ccccc3)C2=O)C1 (stereo not given)', '%', -8.08),
  ('N#Cc1ccc(NCc2cccc(COC3CCOCC3)c2)nc1', '%', -2.1),
  ('Cc1cc(CNC(=O)N2CCCN(Cc3ccccc3)CC2)no1', '%', -9.16),
  ('Cc1nc(O)cc(CCNC(=O)c2ccccc2N2CCCC2)n1', '%', 27),
  ('COc1ncccc1CNC(=O)NCCNC(=O)c1ccco1', '%', 0.312),
  ('Cc1ccc(CN2CCC3(CC2)CCN(C(=O)c2cccn2C)C3)cc1', '%', -3.29),
  ('CNC(=O)C1CCN(CC(=O)Nc2cc(C(C)C)no2)CC1', '%', -1.42),
  ('CNS(=O)(=O)c1ccc(CNC(=O)Nc2cc(C)on2)s1', '%', -6.5),
  ('CCOc1c(Cl)cc(Cl)cc1CNCCCn1ccnc1', '%', -10.4);
